- System: Streptococcus uberis
- PROTOCOL_NOTES: Antimicrobial activity against Streptococcus uberis UCN60 expressing mph(B) and rdmC-like genes by broth microdilution method
- Assay type: functional
ENDPOINT_LABEL: MIC (µg/mL)
Write the value in µg/mL as a bare number.

# count of solved cases: 3
* CC[C@H]1OC(=O)[C@H](C)[C@@H](O[C@H]2C[C@@](C)(OC)[C@@H](O)[C@H](C)O2)[C@H](C)[C@@H](O[C@@H]2O[C@H](C)C[C@H](N(C)C)[C@H]2O)[C@](C)(O)C[C@@H](C)C(=O)[C@H](C)[C@@H](O)[C@]1(C)O [ERYTHROMYCIN] | 0.06
* CC[C@H]1OC(=O)C[C@@H](O)[C@H](C)[C@@H](O[C@@H]2O[C@H](C)[C@@H](O[C@H]3C[C@@](C)(O)[C@@H](O)[C@H](C)O3)[C@H](N(C)C)[C@H]2O)[C@@H](CC=O)C[C@@H](C)C(=O)/C=C/C(C)=C/[C@@H]1CO[C@@H]1O[C@H](C)[C@@H](O)[C@@H](OC)[C@H]1OC [TYLOSIN] | 0.5
* CCC[C@@H]1C[C@@H](C(=O)N[C@@H]([C@H]2O[C@H](SC)[C@H](O)[C@@H](O)[C@H]2O)[C@H](C)Cl)N(C)C1 [CLINDAMYCIN] | 0.03

Enter measured MIC, system Streptococcus uberis, for the compound shown: CC[C@H]1OC(=O)[C@H](C)[C@@H](O[C@H]2C[C@@](C)(OC)[C@@H](O)[C@H](C)O2)[C@H](C)[C@@H](O[C@@H]2O[C@H](C)C[C@H](N(C)C)[C@H]2O)[C@](C)(O)C[C@@H](C)CN(C)[C@H](C)[C@@H](O)[C@]1(C)O [AZITHROMYCIN] 0.12

Give the observed MIC of CO[C@@H]1[C@@H](O[C@@H]2O[C@H](C)[C@@H](O[C@H]3C[C@@](C)(O)[C@@H](OC(=O)CC(C)C)[C@H](C)O3)[C@H](N(C)C)[C@H]2O)[C@@H](CC=O)C[C@@H](C)[C@@H](O)/C=C/C=C/C[C@@H](C)OC(=O)C[C@H]1OC(C)=O [JOSAMYCIN] for Streptococcus uberis. 0.25
